Assay: Biodistribution of [111In]In-radiocomplexes in healthy mice
Format: in vivo
Details: 15 min p.i.
Recorded Biodistribution: Kidney by entry
Answer format: numeric, % I.D./g implied, no suffix.

Use the examples below as a reference point.
O=C([O-])CN1CCN(CC(=O)[O-])CCN(C(CCC(=O)NCc2ccc(-c3nncnn3)cc2)C(=O)[O-])CCN(CC(=O)[O-])CC1.[111In+3] (stereo not shown) [[111In]In-DOTAGA-Tz]	7.2
O=C([O-])CN1CCN(CC(=O)[O-])CCN(C(CCC(=O)NCCOCCOCCOCCOCCOCCOCCOCCOCCOCCOCCOCCNC(=O)CCCC(=O)NCc2ccc(-c3nncnn3)cc2)C(=O)[O-])CCN(CC(=O)[O-])CC1.[111In+3] (stereo not shown) [[111In]In-DOTAGA-PEG-Tz]	4.8
O=C([O-])CN1CCN(CC(=O)[O-])CCN(CC(=O)NCc2ccc(-c3nncnn3)cc2)CCN(CC(=O)[O-])CC1.[111In+3] [[111In]In-DOTA-Tz]	5.2

Turning now to a further molecule:
Given O=C([O-])CN1CCN(CC(=O)[O-])CCN(CC(=O)NCCOCCOCCOCCOCCOCCOCCOCCOCCOCCOCCOCCNC(=O)CCCC(=O)NCc2ccc(-c3nncnn3)cc2)CCN(CC(=O)[O-])CC1.[111In+3] [[111In]In-DOTA-PEG-Tz] , state its recorded Biodistribution: Kidney.
5.8
